- System: Sodium/Iodide Symporter (NIS), SLC5A5 (gene 6528)
- PROTOCOL NOTES: CPHEA_Stoker_NIS_Inhibition_RAIU: CPHEA's Radioactive Iodide Uptake (RAIU) Assay for Sodium/Iodide Symporter (NIS) Inhibition, Stoker and Laws Labs (AID 2283841)
Records with an inconclusive call do not appear. Calls of active or inactive are those of the source. Rule for the calls: active = hit-call score of the fitted dose curve at least 0.9, where 1 is the maximum; inconclusive = response in the unintended direction; inactive = score below 0.9.
Lab note: assign the record to one of Y = active, N = inactive

Example entries and their recorded answers appear below.
COMPOUND	ASSAY TARGET	ASSIGNED CATEGORY
CCCCCCCCCc1ccc(OCCO)cc1	Sodium/Iodide Symporter (NIS), SLC5A5 (gene 6528)	Y
O=C(c1ccccc1)c1ccc(O)cc1O	Sodium/Iodide Symporter (NIS), SLC5A5 (gene 6528)	N
CCC(Cc1c(I)cc(I)c(N)c1I)C(=O)O (stereo unspecified)	Sodium/Iodide Symporter (NIS), SLC5A5 (gene 6528)	N

Enquiry: How did this test come out for "O=S(=O)(OCC(F)(F)F)C(F)(F)C(F)(F)C(F)(F)C(F)(F)F" ?
Return: N

Enquiry: How did this test come out for "OCC(F)(F)C(F)(F)C(F)(F)C(F)(F)C(F)(F)C(F)(F)C(F)(F)C(F)(F)CO" ?
Return: Y

Enquiry: How did this test come out for "C[C@]12CC[C@H]3C(=CCc4cc(O)ccc43)[C@@H]1CCC2=O" ?
Return: N

* * *

- ASSAY TARGET: Nuclear receptor subfamily 1 group I member 2 (Homo sapiens) (UniProt O75469)
- Sequence (O75469 whole entry, looked up): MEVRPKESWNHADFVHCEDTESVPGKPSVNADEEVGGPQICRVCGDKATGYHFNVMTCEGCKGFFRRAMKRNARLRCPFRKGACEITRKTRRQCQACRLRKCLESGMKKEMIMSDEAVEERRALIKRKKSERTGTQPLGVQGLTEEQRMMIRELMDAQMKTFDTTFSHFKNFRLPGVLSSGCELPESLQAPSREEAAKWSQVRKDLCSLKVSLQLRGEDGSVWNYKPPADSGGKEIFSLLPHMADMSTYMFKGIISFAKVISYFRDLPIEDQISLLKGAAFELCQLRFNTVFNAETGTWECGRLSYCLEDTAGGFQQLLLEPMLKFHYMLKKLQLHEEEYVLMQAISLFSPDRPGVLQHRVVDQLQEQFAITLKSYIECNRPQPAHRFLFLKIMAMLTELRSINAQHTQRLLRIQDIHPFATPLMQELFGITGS
- PROTOCOL NOTES: ATG_PXR_TRANS: Attagene TRANS-FACTORIAL HepG2 Assay for human Pregnane X Receptor (PXR) (AID 2283008)
- Procedure: ATG_TRANS is a cell-based, multiplexed-readout assay that uses HepG2, a human liver cell line, with measurements taken at 24 hours after chemical dosing in a 24-well plate.ATG_PXR_TRANS is one of 30 assay component(s) measured or calculated from the ATG_TRANS assay. […] This assay endpoint, ATG_PXR_TRANS, was analyzed in the positive analysis fitting direction relative to DMSO as the negative control and baseline of activity. […]
Records with an inconclusive call do not appear. The source made the active and inactive calls. Rule for the calls: active = hit-call score of the fitted dose curve at least 0.9, where 1 is the maximum; inconclusive = response in the unintended direction; inactive = score below 0.9.
ASSAY ENDPOINT: AC50

COMPOUND	RESULT
C=C(C)C(=O)OCC(F)(F)C(F)(F)C(F)(F)C(F)F	inactive
OCCCC(F)(F)C(F)(F)C(F)(F)C(F)(F)C(F)(F)C(F)(F)C(F)(F)C(F)(F)F	inactive
C=C(C)CCCC	inactive
C=CC(=O)OCC(F)(F)C(F)(F)C(F)(F)C(F)(F)C(F)(F)C(F)(F)C(F)(F)C(F)F	inactive
FC(F)(F)C(F)(F)C(F)(F)C(F)(F)C(F)(F)C(F)(F)C(F)(F)CCI	inactive

Each compound below has a reported value. Please supply its AC50.
1. CCN=C1C=CC(=C(c2ccc(N(CC)CC)cc2)c2ccc(N(CC)CC)cc2)c2ccccc21
2. O=C(O)C(F)(F)OC(F)(F)C(F)(F)OC(F)(F)C(F)(F)OC(F)(F)F

Return:
inactive
inactive

Each compound below has a reported value. Please supply its AC50.
1. Cc1ccc(O)c(-n2nc3ccccc3n2)c1
2. OCC(O)CC(F)(F)C(F)(F)C(F)(F)C(F)(F)C(F)(F)C(F)(F)C(F)(F)C(F)(F)F (configuration not stated)
3. CC(=O)C=O
4. O=C=Nc1cccc2c(N=C=O)cccc12

Return:
1. 14.6 µM (active)
2. inactive
3. inactive
4. 0.628 µM (active)

Each compound below has a reported value. Please supply its AC50.
1. O=S(=O)(O)CCC(F)(F)C(F)(F)C(F)(F)C(F)(F)F
2. CSc1ccc(Cl)cc1
3. NCC(F)(F)C(F)(F)C(F)(F)C(F)(F)C(F)(F)C(F)(F)F
4. CNS(=O)(=O)C(F)(F)C(F)(F)C(F)(F)C(F)(F)C(F)(F)C(F)(F)C(F)(F)C(F)(F)F
5. CCCCCCCC/C=C\CCCCCCCC(=O)OCC(O)CO (configuration not stated)
6. C=CC(=O)OCCC(F)(F)C(F)(F)C(F)(F)C(F)(F)F
7. CCC(C)CO (configuration not stated)
8. O=C(O)C(F)(F)C(F)(F)C(F)(F)OC(F)(C(F)(F)F)C(F)(F)F

Return:
["inactive", "inactive", "inactive", "inactive", "inactive", "inactive", "inactive", "inactive"]

Each compound below has a reported value. Please supply its AC50.
1. CC1CCCCC1
2. COCCOCCC[Si](C)(O[Si](C)(C)C)O[Si](C)(C)C
3. CCn1c2ccccc2c2ccccc21

Return:
1. inactive
2. 1.47 µM (active)
3. 10.3 µM (active)

Each compound below has a reported value. Please supply its AC50.
1. CC(=O)CCC(C)C
2. C=CC(=O)OCC(F)(F)C(F)(F)C(F)(F)COC(=O)C=C
3. Cc1ccc(O)cn1
4. O=C(Cl)C(F)(F)C(F)(F)C(F)(F)C(F)(F)C(F)(F)C(F)(F)C(F)(F)F
5. NC(=O)C(F)(F)C(F)(F)C(F)(F)C(F)F
6. CCOC(C=C(C)CCC=C(C)C)OCC

Return:
1: inactive; 2: inactive; 3: inactive; 4: inactive; 5: inactive; 6: 26.5 µM (active)

Each compound below has a reported value. Please supply its AC50.
1. NC(=O)C(F)(F)C(F)(F)C(F)(F)C(F)(F)C(F)(F)C(F)(F)C(F)(F)F
2. OCC1CCCO1 (configuration not stated)
3. O=C(c1ccccc1)c1ccc(O)cc1O
4. CC(O)C#CC(C)O (configuration not stated)

Return:
1. inactive
2. inactive
3. inactive
4. inactive

* * *

- PROTOCOL NOTES: ATG_GRE_CIS: Attagene CIS-FACTORIAL HepG2 Assay for human Glucocorticoid Response Elements (GRE) (AID 2282947)
- SETUP CONDITIONS: HepG2 GRE cis-reporter, Attagene multiplex mRNA; actives raise or lower the signal
Active and inactive are the calls of the source. The calls were made as follows: active = hit-call score of the fitted dose curve at least 0.9, where 1 is the maximum; inactive = score below 0.9.
Lab note: assign the record to one of active, inactive

Enquiry: How did this test come out for CCc1cccc(C)c1N(C(=O)C(=O)O)C(C)COC (centres undefined) ?
Return: inactive

Enquiry: How did this test come out for "COc1ccccc1C=O" ?
Return: inactive

Enquiry: How did this test come out for "CC(C)(C)c1cc(Cc2cc(C(C)(C)C)c(O)c(C(C)(C)C)c2)cc(C(C)(C)C)c1O" ?
Return: inactive

Enquiry: How did this test come out for "CN(C)C(C)(C)CO" ?
Return: inactive

* * *

- ASSAY TARGET: Peroxisome proliferator-activated receptor gamma (Homo sapiens)
- PROTOCOL NOTES: ATG_PPARg_TRANS: Attagene TRANS-FACTORIAL HepG2 Assay for human Peroxisome Proliferator-activated Receptor-gamma (PPARg) (AID 2283007)
Inconclusive results are not listed. Active and inactive are the calls of the source. Rule for the calls: active = hit-call score of the fitted dose curve at least 0.9, where 1 is the maximum; inconclusive = response in the unintended direction; inactive = score below 0.9.
Lab note: assign the record to one of active, inactive

Example entries and their recorded answers appear below.
COMPOUND	ASSIGNED CATEGORY
NC(=O)C(F)(F)C(F)(F)C(F)(F)C(F)(F)C(N)=O	inactive
O=C1C=CC(=O)N1c1ccccc1	inactive
CCOCOCC	inactive
C[C@]12CC[C@H]3C(=CCc4cc(O)ccc43)[C@@H]1CCC2=O	inactive
COCCC(=O)OC	inactive

Enquiry: How did this test come out for "CCn1c2ccccc2c2ccccc21" ?
Return: inactive

Enquiry: How did this test come out for "O=C(O)C(F)(F)C(F)(F)C(F)(F)OC(F)(C(F)(F)F)C(F)(F)F" ?
Return: active

Enquiry: How did this test come out for "C=CC(=O)OCC(F)(F)C(F)(F)C(F)(F)C(F)(F)C(F)(F)C(F)(F)C(F)(F)C(F)F" ?
Return: active

* * *

- Read-out: Plasminogen activator inhibitor-1 (PAI1), SERPINE1 (gene 5054)
- PROTOCOL NOTES: BSK_hDFCGF_PAI1: BioMAP Diversity Plus: hDFCGF Assay for Plasminogen activator inhibitor-1 (PAI1) Biomarker Activity (AID 2283066)
- SETUP CONDITIONS: primary human foreskin fibroblasts; actives raise or lower the signal
Calls of active or inactive are those of the source. The calls were made as follows: active = hit-call score of the fitted dose curve at least 0.9, where 1 is the maximum; inactive = score below 0.9.
Lab note: assign the record to one of 1 (yes) (active), 0 (no) (inactive)

Enquiry: How did this test come out for "NCC(F)(F)C(F)(F)C(F)(F)C(F)(F)C(F)(F)C(F)(F)F" ?
Return: 0 (no)

Enquiry: How did this test come out for "NC(=O)C(F)(F)C(F)(F)C(F)(F)C(F)F" ?
Return: 0 (no)

Enquiry: How did this test come out for COC(F)(C(F)F)C(F)(F)F (stereo not given) ?
Return: 0 (no)

Enquiry: How did this test come out for "CO[Si](C)(CCC(F)(F)C(F)(F)C(F)(F)C(F)(F)C(F)(F)C(F)(F)F)OC" ?
Return: 0 (no)

Enquiry: How did this test come out for "CCN(CC)c1ccc(C=O)c(O)c1" ?
Return: 0 (no)

Enquiry: How did this test come out for "NC(O)(C(F)(F)F)C(F)(F)F" ?
Return: 0 (no)
